B1: NET1 (parent)
chain: PTPAKRRSSALWSEMLDITMKESL

- Variants of: B1
- assay-name: protein stability index of a GFP-peptide fusion (GPS, HEK-293T) (PSI 1-6); higher = more stable;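 also: lentivirally expressed fusions sorted by FACS into six bins by GFP to DsRed ratio, PSI derived from sequencing read proportions per bin multiplied by bin number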
- measurement-context: c terminus: a fixed tail appended
Use true when the recorded protein stability index is no lower than 3; use false when it is lower.

Previously resolved entries follow.
| sequence-variant | qualitative-label |
| --- | --- |
| L11H | true |
| S13I | false |
| W12C | true |
| A4K | false |

Next, consider the following variant.
[Q] Tell me whether protein stability index is at least 3 here: M15F
[A] false
